Recorded values, source patent US12054487B2.

target: M2 (Homo sapiens); experiment: In vitro functional assay of muscarinic acetylcholine receptor activity, M2; settings: antagonist activity; M2 method not separately described
Sequence (P08172 whole entry): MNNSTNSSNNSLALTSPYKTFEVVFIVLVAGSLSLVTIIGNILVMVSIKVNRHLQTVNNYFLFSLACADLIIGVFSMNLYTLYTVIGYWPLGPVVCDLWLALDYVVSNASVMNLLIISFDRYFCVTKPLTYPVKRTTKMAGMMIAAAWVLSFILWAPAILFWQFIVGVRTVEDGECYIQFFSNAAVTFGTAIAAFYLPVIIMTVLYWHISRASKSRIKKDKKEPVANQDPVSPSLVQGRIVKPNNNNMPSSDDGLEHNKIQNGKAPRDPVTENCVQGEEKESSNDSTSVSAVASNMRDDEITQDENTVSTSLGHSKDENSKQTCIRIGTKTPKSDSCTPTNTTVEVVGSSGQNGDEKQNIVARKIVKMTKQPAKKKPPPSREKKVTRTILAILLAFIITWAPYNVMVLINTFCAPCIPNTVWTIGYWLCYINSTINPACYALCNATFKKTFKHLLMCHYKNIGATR
pIC50: −log10 of the molar value.
Reported metric: pIC50

Ask: So what pIC50 did N#Cc1ccc(N2CCN3C(=O)[C@@H](CCCc4cccc5c4CCO5)C[C@H]3C2)nc1 get with M2 (Homo sapiens)?
Reply: 6.00 to 7.00

Ask: Please tell me: pIC50 of N#Cc1cc(N2CCN3C(=O)[C@@H](CCCc4cccc5ncnn45)C[C@H]3C2)ccc1F , system M2 (Homo sapiens)?
Reply: 6.00 to 7.00

Ask: Checklist item: pIC50 tested on M2 (Homo sapiens), entry N#Cc1cc(N2CCN3C(=O)[C@@H](CCCc4cccc5ncsc45)C[C@H]3C2)ccn1 , value?
Reply: 6.00 to 7.00

Ask: Recorded pIC50 for Cc1nc2cccc(CCC[C@H]3C[C@H]4CN(c5ccc(C#N)cn5)CCN4C3=O)c2o1 with M2 (Homo sapiens), please?
Reply: 5.00 to 6.00

Ask: Give M2 (Homo sapiens) pIC50 for O=C1[C@@H](CCCc2cccn3nccc23)C[C@H]2CN(c3ccc(F)cn3)CCN12
Reply: 5.00 to 6.00
